target: native α7 nAChRs in rat primary hippocampal neurons (Rattus norvegicus, UniProt Q05941); construct: native α7 nAChRs in rat primary hippocampal neurons; host or cells: primary hippocampal neurons from E18 Sprague Dawley rat; assay: Fluorescence-based intracellular calcium imaging of rat primary hippocampal neurons; type: cell-based; conditions: 4BP-TQS 0.3 to 30 µM; n = 6; read-out: EC50, agonist activation (calcium response)
Sequence (Q05941 23-502): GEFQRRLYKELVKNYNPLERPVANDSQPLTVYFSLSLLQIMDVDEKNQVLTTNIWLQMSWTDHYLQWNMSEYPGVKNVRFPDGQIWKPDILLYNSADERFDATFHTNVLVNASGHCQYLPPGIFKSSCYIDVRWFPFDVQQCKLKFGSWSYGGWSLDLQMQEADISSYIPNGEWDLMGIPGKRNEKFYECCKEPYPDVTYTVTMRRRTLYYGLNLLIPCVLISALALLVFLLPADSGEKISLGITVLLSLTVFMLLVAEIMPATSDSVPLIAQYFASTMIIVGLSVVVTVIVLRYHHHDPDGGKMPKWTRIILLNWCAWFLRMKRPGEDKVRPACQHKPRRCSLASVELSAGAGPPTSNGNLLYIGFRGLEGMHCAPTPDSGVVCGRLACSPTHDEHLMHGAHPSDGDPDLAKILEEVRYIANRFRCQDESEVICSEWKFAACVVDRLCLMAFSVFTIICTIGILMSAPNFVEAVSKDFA
measuredParameter: EC50

[[record]]
compound = "NS(=O)(=O)c1ccc2c(c1)C1C=CCC1C(c1ccc(Br)cc1)N2 (stereo not shown)"
measuredparameter = "EC50"
result = "5.5 µM"


----------
target: native α7 nAChRs in rat primary hippocampal neurons (Rattus norvegicus, UniProt Q05941); construct: native α7 nAChRs in rat primary hippocampal neurons; host or cells: primary hippocampal neurons from E18 Sprague Dawley rat; assay: Fluorescence-based intracellular calcium imaging of rat primary hippocampal neurons; type: cell-based; settings: TQS 0.03 to 30 µM in the presence of compound B 5 nM; n = 3; read-out: EC50, potentiation of compound B-evoked calcium response
measuredParameter: EC50 (nM)

[[record]]
compoundstring = "NS(=O)(=O)c1ccc2c(c1)[C@@H]1C=CC[C@@H]1[C@H](c1cccc3ccccc13)N2"
numericresult = 900

